- Tested on: phosphorylation level of intracellular protein kinase (ERK) in MOLM13 cells
- Method notes: Phosphorylated protein kinase (p-ERK) cell experiment (AlphaLISA)
- Type: cell-based
- Particulars: Homo sapiens, MOLM-13; p-ERK, MOLM13 cells, 2 hours of cell treatment, Tables 2.1 and 2.2; read-out: IC50
pIC50: −log10 of the molar value.
Measurement label: pIC50

1. N[C@@H]1COCC12CCN(c1ncc(Sc3cccc(Cl)c3Cl)c3nncn13)CC2 : 6.00 to 7.00
2. Nc1nccc(Sc2cnc(N3CCC4(CCC[C@H]4N)CC3)n3ncnc23)c1Cl : 5.00 to 6.00
3. Nc1nccc(Sc2cnc(N3CCC4(CCC[C@H]4N)CC3)n3ccnc23)c1Cl : 6.00 to 7.00
4. Nc1nccc(Sc2cnc(N3CCC4(CC3)COC[C@H]4N)n3cnnc23)c1Cl : 6.00 to 7.00
5. C[C@@H]1OCC2(CCN(c3ncc(Sc4cccc(Cl)c4Cl)c4nncn34)CC2)[C@@H]1N : 6.00 to 7.00
6. Nc1cc(Sc2cnc(N3CCC4(CCC[C@H]4N)CC3)n3cnnc23)c(Cl)c(Cl)n1 : 6.00 to 7.00
